Recorded values, source the supplement of paper PMC10307832.

# System: NCI-H2009
# procedure.details: relative viability (nuclei count vs DMSO), 5 days (fraction); higher = more cells survive
# experimental.conditions: first compound 0.1581 µM
observed.property: relative viability
# answer = number (no unit)

Prompt line: Return relative viability measured with NCI-H2009 given this molecule: Nc1ccn([C@@H]2O[C@H](CO)[C@@H](O)[C@@H]2O)c(=O)n1 [Cytarabine] + CS(=O)(=O)N1CCN(Cc2cc3nc(-c4cccc5[nH]ncc45)nc(N4CCOCC4)c3s2)CC1 [Pictilisib] (partner 1 µM)
Response line: 0.487

Now for the molecule whose relative viability we want.
Prompt line: Return relative viability measured with NCI-H2009 given this molecule: Nc1ccn([C@@H]2O[C@H](CO)[C@@H](O)[C@@H]2O)c(=O)n1 [Cytarabine] + CC(=O)c1c(C)c2cnc(Nc3ccc(N4CCNCC4)cn3)nc2n(C2CCCC2)c1=O [Palbociclib] (partner 0.5 µM)
Response line: 0.154
